quantityKind: melting point

**Query** Request the reported melting point associated with CCCCCCCCCCCCCCCc1cccc(OC(C)C)c1C1C(C(=O)OCC)=C(C)NC(=O)N1C(=O)OCC (centres unmarked)
**Result** 90 to 92 °C

**Query** Request the reported melting point associated with CCCCCCCCCCCCCCCc1cccc(OCC)c1C1C(C(=O)OC)=C(C)NC(=O)N1C(=O)OCC (centres unmarked)
**Result** 103 °C

**Query** Request the reported melting point associated with CCCCCCCCCCCCCCCc1cccc(OC)c1C1NC(=O)NC(C)=C1C(=O)OC (centres unmarked)
**Result** 101 to 102 °C

**Query** Request the reported melting point associated with CCCCCCCCCCCCCCCc1cccc(OC)c1C1NC(=O)NC(C)=C1C(=O)OCC (centres unmarked)
**Result** 91 to 93 °C

Please look at the items below and tell me melting point for each one, in order.
1. CCCCCCCCCCCCCCCc1cccc(OC)c1C1C(C(=O)OC(C)C)=C(C)NC(=O)N1C(=O)OCC (centres unmarked)
2. CCCCCCCCCCCCCCCc1cccc(OCC)c1C1NC(=O)NC(C)=C1C(=O)OC (centres unmarked)
3. CCCCCCCCCCCCCCCc1cccc(OCC)c1C1C(C(=O)OCC)=C(C)NC(=O)N1C(=O)OCC (centres unmarked)
4. CCCCCCCCCCCCCCCc1cccc(OC)c1C1C(C(=O)OC)=C(C)NC(=O)N1C(=O)OCC (centres unmarked)

**Result**
100 °C
127 to 129 °C
112 °C
121 to 122 °C
